Item-by-item account of GI50
- Test system: ACHN
- Method notes: NCI tumour cell line growth inhibition, 48 h
Active and inactive are the calls of the source. Rule as the data show it: active = GI50 up to about 1.1 µM and inactive = higher.

{"Molecule": "N=C(N)NS(=O)(=O)c1ccc(NCCc2c3ccccc3nc3ccccc23)cc1", "Tgt": "ACHN", "Parameter": "GI50", "Reading": "> 100 µM (inactive)"}

response.value for COC(=O)C(=O)C(C(=O)C(=O)Nc1cc(Cl)c(Cl)cc1Cl)c1nc2ccc([N+](=O)[O-])cc2nc1O (configuration not stated) (field: GI50) = > 100 µM (inactive)

response.value for Nn1c(S)nnc1CCCCCCCCc1nnc(S)n1N (field: GI50) = > 100 µM (inactive)

response.value for CC(=O)Nc1cc2cc(N)ccc2oc1=O (field: GI50) = > 100 µM (inactive)

response.value for O=NC1c2cccc3cccc(c23)C1N=O (configuration not stated) (field: GI50) = 1.72 µM (inactive)

response.value for C/C(=N\Nc1nc2ccccc2s1)c1cccnn1 (field: GI50) = 0.718 µM (active)

response.value for CC(C)NC(=O)OCc1c(COC(=O)NC(C)C)n(C)c2c1ccc1ccsc12 (field: GI50) = 3.05 µM (inactive)

###

- System: A549
- Method notes: NCI tumour cell line growth inhibition, 48 h
Active and inactive are the calls of the source. Cut-off read from the data, not from the text of the source: active = GI50 up to about 1.1 µM and inactive = higher.
Parameter: GI50

// known answers, use as guide
{"Molecule": "O=[N+]([O-])c1cc(/C=N/C23CC4CC(CC(C4)C2)C3)ccc1Cl", "Reading": "> 100 µM (inactive)"}
{"Molecule": "c1ccc2c(-c3csc(-c4c[nH]c5ccccc45)n3)c[nH]c2c1", "Reading": "96.8 µM (inactive)"}
{"Molecule": "NN", "Reading": "145 µM (inactive)"}
{"Molecule": "COc1ccc2[nH]c3c4c(cc(-c5ccccc5)c3c2c1)C(=O)N(c1ccccc1)C4=O", "Reading": "13.8 µM (inactive)"}
{"Molecule": "O=c1oc2ccc(Cl)cc2c2ccccc12", "Reading": "63.4 µM (inactive)"}

response.value for CCCCC(=O)Nc1ccc2cc(C(=O)OC)c(Cl)nc2n1 (field: GI50) = > 100 µM (inactive)

response.value for COc1ccc(C[N+]23C(CC[C@H]2c2ccccc2)CC[C@H]3c2ccccc2)cc1 (stereo partly specified) (field: GI50) = 31.3 µM (inactive)

response.value for Nc1nc2c(c(=O)[nH]1)NC(CO)CN2 (stereo unspecified) (field: GI50) = > 100 µM (inactive)

response.value for Cn1c(=O)c2[nH]c(C3CC(=O)CC(c4nc5c([nH]4)c(=O)n(C)c(=O)n5C)N3)nc2n(C)c1=O (stereo unspecified) (field: GI50) = > 100 µM (inactive)

response.value for OC(C/C=N/Nc1ccccc1)(C(F)(F)Cl)C(F)(F)Cl (field: GI50) = > 10 µM (inactive)

response.value for O=C(CC1(O)C(=O)Nc2c(Cl)cc(Cl)cc21)c1ccc2ccccc2c1 (stereo unspecified) (field: GI50) = 5.2 µM (inactive)

###

- Tested on: HOP-62
- Method notes: NCI tumour cell line growth inhibition, 48 h
Active and inactive are the calls of the source. Rule as the data show it: active = GI50 up to about 1.1 µM and inactive = higher.
Parameter: GI50

response.value for O=NC1c2cccc3cccc(c23)C1N=O (stereo not drawn) (field: GI50) = 5.26 µM (inactive)

response.value for CC(=O)Nc1cc2cc(N)ccc2oc1=O (field: GI50) = > 100 µM (inactive)

response.value for Nc1nc(N)c2nc(CNc3ccc(C(=O)NC(CCCCNC(=O)c4ccccc4C(=O)O)C(=O)O)cc3)cnc2n1 (stereo not drawn) (field: GI50) = 0.01 µM (active)

###

- Tested on: PC-3
- Method notes: NCI tumour cell line growth inhibition, 48 h
Active and inactive are the calls of the source. Rule as the data show it: active = GI50 up to about 1.1 µM and inactive = higher.
Item-by-item account of GI50

// known answers, use as guide
{"Compound": "Nc1nc(N)c2cc(-c3ccccc3)cnc2n1", "GI50": "8 µM (inactive)"}
{"Compound": "O=[N+]([O-])c1ccc(/C=N/n2c(CO)nc3ccccc32)o1", "GI50": "10.2 µM (inactive)"}

response.value for COc1ccc(C2SCC(=O)N2NC2=NC(=O)CC(=O)N2)cc1 (stereo not drawn) (field: GI50) = > 100 µM (inactive)

###

- Test system: COLO 205
- Method notes: NCI tumour cell line growth inhibition, 48 h
The source made the active and inactive calls. Rule as the data show it: active = GI50 up to about 1.1 µM and inactive = higher.
Item-by-item account of GI50

// known answers, use as guide
{"Molecule": "Nc1nc2c(c(=O)[nH]1)NC(CO)CN2 (centres undefined)", "GI50": "> 100 µM (inactive)"}
{"Molecule": "Cc1ccc(S(=O)(=O)OI(O)CC(F)(F)F)cc1", "GI50": "> 100 µM (inactive)"}
{"Molecule": "Cc1ccc(C)c(NC(=O)CCc2n[nH]c(=S)o2)c1", "GI50": "> 100 µM (inactive)"}
{"Molecule": "Nc1ccc(-c2nc3cc(F)ccc3s2)cc1I", "GI50": "2.45 µM (inactive)"}
{"Molecule": "COC(=O)[C@]1(C)CCC[C@]2(C)C3CC4OOC3(C=C4C(C)(C)O)CCC21 (some centres undefined)", "GI50": "69.8 µM (inactive)"}
{"Molecule": "N#CC(C(=N/NC(N)=S)/C(=N/NC(N)=S)C(C#N)c1ccc(Cl)cc1)c1ccc(Cl)cc1 (centres undefined)", "GI50": "> 100 µM (inactive)"}
{"Molecule": "C/C(=N\\Nc1nc2ccccc2s1)c1cccnn1", "GI50": "2.48 µM (inactive)"}
{"Molecule": "O=CNC(Cc1c[nH]cn1)C(=O)O (centres undefined)", "GI50": "> 100 µM (inactive)"}

We next turn to a different molecule, shown below.
response.value for O=C(Cn1ccnc1[N+](=O)[O-])c1ccccc1 (field: GI50) = > 100 µM (inactive)

###

Item-by-item account of GI50
- Test system: A549
- Method notes: NCI tumour cell line growth inhibition, 48 h
Calls of active or inactive are those of the source. Rule as the data show it: active = GI50 up to about 1.1 µM and inactive = higher.

{"Molecule": "COc1cc2[nH]c(=O)c3cc(-c4ccccc4)cc4c(Cl)nc(c1OC)c2c43", "Reading": "23.2 µM (inactive)"}

response.value for O=C(Nc1ccc(Cl)cc1)Oc1ccc(C(=S)Nc2ccc(Br)cc2)cc1 (field: GI50) = 10 µM (inactive)

response.value for CN(CC#N)C1CCCC[C@H]1O (stereo not given in full) (field: GI50) = > 100 µM (inactive)

response.value for O=C(CCc1cc(-c2ccc(F)cc2)n[nH]1)N(Cc1ccccc1)Cc1ccccc1 (field: GI50) = > 100 µM (inactive)

response.value for CNC(=S)NC(=S)N(C)C (field: GI50) = 7.67 µM (inactive)

src = ChEMBL document CHEMBL1201862
